T1/2 values by entry
# TARGET_DESC: T1, Dimeric Human Ang-2FD conjugated to human IgG1 (human)
# T1 construct: also called Human Ang-2FD-hFc; hAng-2FD-hFc
# PROTOCOL_DESCRIPTION: SPR, captured Ab, RT
// return numeric value only (unit: h, not printed)

{"columns": ["BINDER", "UNIT_ANNOTATION", "T1/2"],
 "data": [
  ["H1H728N (antibody, V domains shown) VH: EVQLVESGGDLVQPGGSLRLSCTASGFTFSKYWMTWVRQAPGRGLEWVANIKEDGNEKYFLDSVKGRFTISRDNAKDLLFLQMNSLRGEDTAVYYCVRDRGIEVAGPFDYWGQGTLVTVSS VL: DIQMTQSPSTLSASVGDRVTVTCRASQTIINWLAWYQQKPGKAPKLLISKASSLESGVPSRFSGSGSGTEFTLTISSLQPDDFATYYCQQYNRYWTFGQGTMVEIK", "h", 1.35],
  ["H1H724N (antibody, V domains shown) VH: QVQLVESGGGVVQPGRSLRLSCAASGFTLSNYGMHWVRQAPGKGLEWVAVIWHDGSNTYYADSVKGRFTISRDNSKNTLYLQMNSLRAEDTAVYYCTREGLDFWSGYYPNWFDPWGQGTLVTVSS VL: DIQMTQSPSSLSASVGDRVTITCRASQGIRNDLGWYQQKPGKAPKRLIYAASNLQGGVPSRFSGSGSGTEFTLTISSLQPEDFAAYYCLQHNIYPLTFGGGTKVEIK", "h", 1.78]
]}

Kindly consider the entry below.
stdin: Requested read-out: T1/2. Entry: H1H743N (antibody, V domains shown) VH: EVQLLESGGGLVQPGGSLRLSCAASGFTFRKYAMSWVRQAPGKGLEWVSVISVSGGNTYYADSVKGRFTISRDNSKNTLYLQLNSLRAEDTAVYYCAKDLTDIVLMVYVDYWGQGTLVTVSS VL: DIQMTQSPSSVSASVGDRVTITCRASQDIDRWLAWYQQKPGKAPKLLIYAASSLQSGVPSRFSGSGSGTDFTLTISTLQPEDFATYYCQQANSLPFTFGGGTKVEIK
stdout: 4.23
